Biological target: catalytic domain (JH1, amino acids 826-1132) of human JAK2 (Homo sapiens)
Construct: catalytic domain (JH1, amino acids 826-1132) of human JAK2; FLAG (N)
Sequence (O60674 826-1132): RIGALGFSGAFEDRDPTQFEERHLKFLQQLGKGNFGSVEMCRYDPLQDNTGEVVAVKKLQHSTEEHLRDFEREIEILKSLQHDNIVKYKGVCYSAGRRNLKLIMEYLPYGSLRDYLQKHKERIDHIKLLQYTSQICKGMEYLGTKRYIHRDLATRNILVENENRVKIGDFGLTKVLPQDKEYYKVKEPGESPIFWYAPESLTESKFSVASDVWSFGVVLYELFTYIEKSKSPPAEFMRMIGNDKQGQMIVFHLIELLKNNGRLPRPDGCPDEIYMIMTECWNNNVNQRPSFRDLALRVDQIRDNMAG
Experiment: JAK2 LanthaScreen JH1 Binding Assay
Conditions: JAK2 JH1 (1.5 nM), 50 nM fluorescent JAK2-JH1 tracer, 2 hours at 25° C.; read-out: JH1 BIND
pIC50: −log10 of the molar value.
Parameter Measured: pIC50

Exam item: Fill in the blank: the reported pIC50 of CC(C)n1c(=O)n(C)c2cnc3[nH]c(-c4cnn(CS(C)(=O)=O)c4)c(-c4ccccc4)c3c21 is ____.
Marked response: 6.30 to 7.00

Exam item: Param item: CCc1[nH]c2ncc3c(c2c1-c1ccc2c(cnn2C)c1)n(C1CCCC1)c(=O)n3C
Marked response: < 6.00

Exam item: Param item: CC(C)n1c(=O)n(C)c2cnc3[nH]c(-c4cnn(CC(C)(C)O)c4)c(-c4cc5cnc(N6CCNCC6)cc5s4)c3c21
Marked response: 6.30 to 7.00

Exam item: Param item: CCn1c(=O)n(C2CCCC2)c2c3cc(-c4ccc(CN5CCC(S(C)(=O)=O)CC5)cc4)[nH]c3ncc21
Marked response: 6.30 to 7.00

====

Molecular target: pseudo-kinase domain (JH2, amino-acids 536-812 with 3 surface mutations W659A, W777A, F794H) of human Wild Type JAK2 (Homo sapiens, UniProt O60674, F794H/W659A/W777A)
Construct: pseudo-kinase domain (JH2, amino-acids 536-812 with 3 surface mutations W659A, W777A, F794H); His (C); Avi (biotinylated) (C)
Sequence (O60674 536-812 W659A/W777A/F794H): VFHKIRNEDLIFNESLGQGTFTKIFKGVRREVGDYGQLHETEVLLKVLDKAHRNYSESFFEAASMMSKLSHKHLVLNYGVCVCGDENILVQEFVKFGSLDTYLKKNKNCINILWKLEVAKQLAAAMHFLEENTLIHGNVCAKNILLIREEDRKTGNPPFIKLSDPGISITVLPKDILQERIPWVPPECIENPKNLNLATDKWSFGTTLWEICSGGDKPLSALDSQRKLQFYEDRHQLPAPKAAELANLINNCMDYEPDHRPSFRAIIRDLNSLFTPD
Assay: JAK2 LanthaScreen JH2-WT Binding Assay
Details: JAK2 JH2-WT (0.145 nM), 50 nM Fluorescent JAK2-JH2 Tracer, 1 hour at 25° C.; read-out: JH2 BIND WT
pIC50: −log10 of the molar value.
Give measured pIC50 for each item. Keep answers brief.

Exam item: Fill in the blank: the reported pIC50 of COc1ccc(-c2c(-c3cnn(Cc4ccncc4)c3)[nH]c3ncc4c(c23)n(C2CCCC2)c(=O)n4C)cc1 is ____.
Marked response: ≥ 8.00

Exam item: Param item: CCN1CCN(c2ccc(-c3cc4c(ncc5c4n(Cc4cnn(C)c4)c(=O)n5C)[nH]3)cc2)CC1
Marked response: < 6.00

Exam item: Param item: COC(=O)N[C@H]1C[C@@H](n2c(=O)n(C)c3cnc4[nH]c(-c5cnn(C)c5)c(-c5ccc6c(cnn6C)c5)c4c32)C1
Marked response: ≥ 8.00

Exam item: Param item: Cn1ncc2cc(-c3c(S(C)(=O)=O)[nH]c4ncc5c(c34)n(C3CCCC3)c(=O)n5C)ccc21
Marked response: 6.00 to 6.30

Exam item: Param item: CCN1CCN(c2ccc(-c3cc4c(ncc5c4n(-c4ccccn4)c(=O)n5C)[nH]3)cc2)CC1
Marked response: < 6.00

Exam item: Param item: Cn1ncc2cc(-c3c(-c4ccc(OC5CCOCC5)nc4)[nH]c4ncc5c(c34)n(C3CCCC3)c(=O)n5C)ccc21
Marked response: 7.00 to 8.00

====

Biological target: pseudo-kinase domain (JH2, amino-acids 536-812 with 3 surface mutations W659A, W777A, F794H) of human Wild Type JAK2 (Homo sapiens, UniProt O60674, F794H/W659A/W777A)
Construct: pseudo-kinase domain (JH2, amino-acids 536-812 with 3 surface mutations W659A, W777A, F794H); His (C); Avi (biotinylated) (C)
Assay: JAK2 LanthaScreen JH2-WT Binding Assay
Details: JAK2 JH2-WT (0.145 nM), 50 nM Fluorescent JAK2-JH2 Tracer, 1 hour at 25° C.; read-out: JH2 BIND WT
Give measured IC50 for each item. Keep answers brief.

Exam item: Fill in the blank: the reported IC50 of COc1ccc(-c2[nH]c3ncc4c(c3c2-c2ccc3c(cnn3C)c2)n(C(C)C)c(=O)n4C)cn1 [Example 62] is ____.
Marked response: 10 to 100 nM

Exam item: Param item: CC(C)n1c(=O)n(C)c2cnc3[nH]c(-c4ccc(CN5CCC(S(C)(=O)=O)CC5)cc4)c(-c4ccccc4)c3c21 [Example 18]
Marked response: ≤ 10 nM

Exam item: Param item: Cn1c(=O)n(C2CCCC2)c2c3c(C4=CCOCC4)c(-c4ccc(CN5CCC(S(C)(=O)=O)CC5)cc4)[nH]c3ncc21 [Example 33]
Marked response: ≤ 10 nM

Exam item: Param item: Cn1c(=O)n(C2CCOCC2)c2c3c(-c4ccc(C5(C#N)CC5)cc4)c(-c4ccc(CN5CCC(S(C)(=O)=O)CC5)cc4)[nH]c3ncc21 [Example 49]
Marked response: ≤ 10 nM

Exam item: Param item: CC(C)n1c(=O)n(C)c2cnc3[nH]c(Cc4ccc(C#N)cc4)c(-c4ccc5c(cnn5C)c4)c3c21 [Example 96]
Marked response: > 1000 nM

Exam item: Param item: Cn1c(=O)n(C)c2c3c(C4CC4)c(-c4ccc(CN5CCC(S(C)(=O)=O)CC5)cc4)[nH]c3ncc21 [Example 34]
Marked response: 500 to 1000 nM

Exam item: Param item: Cn1c(=O)n(-c2ccc3occc3c2)c2c3cc(-c4ccc(CN5CCC(S(C)(=O)=O)CC5)cc4)[nH]c3ncc21 [Example 3]
Marked response: 10 to 100 nM

Exam item: Param item: Cn1c(=O)n(C2CCCC2)c2c3c(-c4ccccc4)c(-c4cnn(CS(C)(=O)=O)c4)[nH]c3ncc21 [Example 29]
Marked response: ≤ 10 nM

Exam item: Param item: Cn1c(=O)n(-c2ccccc2)c2c3cc(-c4cnn(C5CCS(=O)(=O)C5)c4)[nH]c3ncc21 (stereo not drawn) [Example 6]
Marked response: 100 to 500 nM

Exam item: Param item: Cn1c(=O)n(C)c2c3c(-c4ccccc4)c(CCO)[nH]c3ncc21 [Example 42]
Marked response: > 1000 nM

Exam item: Param item: Cn1ncc2cc(-c3c(-c4cccnc4)[nH]c4ncc5c(c34)n(C3CCCC3)c(=O)n5C)ccc21 [Example 61]
Marked response: ≤ 10 nM

Exam item: Param item: Cn1cc(-c2cc3c(ncc4c3[nH]c(=O)n4C)[nH]2)cn1 [Example 14]
Marked response: > 1000 nM

====

Target: pseudo-kinase domain (JH2, amino-acids 536-812 with 3 surface mutations W659A, W777A, F794H) of human Wild Type JAK2 (Homo sapiens, UniProt O60674, F794H/W659A/W777A)
Construct: pseudo-kinase domain (JH2, amino-acids 536-812 with 3 surface mutations W659A, W777A, F794H); His (C); Avi (biotinylated) (C)
Assay: JAK2 LanthaScreen JH2-WT Binding Assay
Conditions: JAK2 JH2-WT (0.145 nM), 50 nM Fluorescent JAK2-JH2 Tracer, 1 hour at 25° C.; read-out: JH2 BIND WT
pIC50: −log10 of the molar value.
Give measured pIC50 for each item. Keep answers brief.

Exam item: Fill in the blank: the reported pIC50 of CCc1[nH]c2ncc3c(c2c1-c1ccc2c(cnn2C)c1)n(C1CCCC1)c(=O)n3C is ____.
Marked response: 7.00 to 8.00

Exam item: Param item: Cn1c(=O)n(-c2ccccc2)c2c3cc(-c4ccc(CN5CCC(S(C)(=O)=O)CC5)c(F)c4)[nH]c3ncc21
Marked response: 7.00 to 8.00

Exam item: Param item: Cn1ncc2cc(-c3c(-c4cnn5cccnc45)[nH]c4ncc5c(c34)n(C3CCOCC3)c(=O)n5C)ccc21
Marked response: ≥ 8.00

Exam item: Param item: Cc1cn2cc(-c3c(-c4cnn(CC(C)(C)O)c4)[nH]c4ncc5c(c34)n(C(C)C)c(=O)n5C)cc2cn1
Marked response: ≥ 8.00

Exam item: Param item: Cn1ncc2cc(-c3c(C4CC4C#N)[nH]c4ncc5c(c34)n(C3CCCC3)c(=O)n5C)ccc21 (centres unmarked)
Marked response: ≥ 8.00

====

Target: pseudo-kinase domain (JH2, amino-acids 536-812 with 3 surface mutations W659A, W777A, F794H) of human V617F mutant JAK2 (Homo sapiens, UniProt O60674, F794H/V617F/W659A/W777A)
Construct: pseudo-kinase domain (JH2, amino-acids 536-812 with 3 surface mutations W659A, W777A, F794H); His (C); Avi (biotinylated) (C)
Sequence (O60674 536-812 V617F/W659A/W777A/F794H): as the sequence (O60674 536-812 W659A/W777A/F794H) above, with V82F counted along it
Assay: JAK2 LanthaScreen JH2-V617F Binding Assay
Conditions: JAK2 JH2-V617F (0.26 nM), 50 nM Fluorescent JAK2-JH2 Tracer, 1 hour at 25° C.; read-out: JH2 BIND V617F
pIC50: −log10 of the molar value.
Parameter Measured: pIC50

Exam item: Fill in the blank: the reported pIC50 of CC(C)n1c(=O)n(C)c2cnc3[nH]c(-c4cnn(CC(C)(C)O)c4)c(-c4ccn5cncc5c4)c3c21 is ____.
Marked response: 7.00 to 8.00

Exam item: Param item: Cn1ncc2cc(-c3c(-c4cnn(CC(F)F)c4)[nH]c4ncc5c(c34)n(C3CCCC3)c(=O)n5C)ccc21
Marked response: ≥ 8.00

Exam item: Param item: Cn1c(=O)n(C(C)(C)C)c2c3cc(-c4ccc(CN5CCC(S(C)(=O)=O)CC5)cc4)[nH]c3ncc21
Marked response: 7.00 to 8.00

Exam item: Param item: [2H]C([2H])([2H])n1ncc2cc(-c3c(-c4cn(C)nc4OC)[nH]c4ncc5c(c34)n(C3CCOCC3)c(=O)n5C)ccc21
Marked response: ≥ 8.00

Exam item: Param item: Cn1c(=O)n(-c2ccccc2)c2c3cc(-c4ccc(CN5CCC(S(C)(=O)=O)CC5)cc4)[nH]c3ncc21
Marked response: 6.30 to 7.00
